target: SIG11-pY668; assay: fluorescence polarization
measurement_kind: pKd
One number for each entry, as −log10 of the molar value.

Reference set (3 entries):
binder	number
T8V (designed binder) MKIEEHHHHHHSSGRENLYFQGGAAQPAAPVDSIQAEEWYFGKLGRKDAERQLLSFGNPRGTFLIRESETVKGAYSLSIRDWDDMKGDHVKHYKIRKLDNGGYYITTRAQFETLQQLVQHYSERAAGLSSRLVVPSHKGAAA	5.92
S10V K15L (designed binder) MKIEEHHHHHHSSGRENLYFQGGAAQPAAPVDSIQAEEWYFGKLGRKDAERQLLSFGNPRGTFLIRESETTKGAYVLSIRDWDDMKGDHVKHYLIRKLDNGGYYITTRAQFETLQQLVQHYSERAAGLSSRLVVPSHKGAAA	6.49
S10A (designed binder) MKIEEHHHHHHSSGRENLYFQGGAAQPAAPVDSIQAEEWYFGKLGRKDAERQLLSFGNPRGTFLIRESETTKGAYALSIRDWDDMKGDHVKHYKIRKLDNGGYYITTRAQFETLQQLVQHYSERAAGLSSRLVVPSHKGAAA	7.32

Here is the next item to consider.
Task: Suppose we examine the binder K2E T8V S10A K15I (designed binder) MKIEEHHHHHHSSGRENLYFQGGAAQPAAPVDSIQAEEWYFGKLGREDAERQLLSFGNPRGTFLIRESETVKGAYALSIRDWDDMKGDHVKHYIIRKLDNGGYYITTRAQFETLQQLVQHYSERAAGLSSRLVVPSHKGAAA ; what pKd value has been reported?
Output: 6.05
